Molecular target: T1, human recombinant CD73 enzyme (CD73 extracellular region) (human, UniProt P21589 27-549)
T1 sequence (looked up): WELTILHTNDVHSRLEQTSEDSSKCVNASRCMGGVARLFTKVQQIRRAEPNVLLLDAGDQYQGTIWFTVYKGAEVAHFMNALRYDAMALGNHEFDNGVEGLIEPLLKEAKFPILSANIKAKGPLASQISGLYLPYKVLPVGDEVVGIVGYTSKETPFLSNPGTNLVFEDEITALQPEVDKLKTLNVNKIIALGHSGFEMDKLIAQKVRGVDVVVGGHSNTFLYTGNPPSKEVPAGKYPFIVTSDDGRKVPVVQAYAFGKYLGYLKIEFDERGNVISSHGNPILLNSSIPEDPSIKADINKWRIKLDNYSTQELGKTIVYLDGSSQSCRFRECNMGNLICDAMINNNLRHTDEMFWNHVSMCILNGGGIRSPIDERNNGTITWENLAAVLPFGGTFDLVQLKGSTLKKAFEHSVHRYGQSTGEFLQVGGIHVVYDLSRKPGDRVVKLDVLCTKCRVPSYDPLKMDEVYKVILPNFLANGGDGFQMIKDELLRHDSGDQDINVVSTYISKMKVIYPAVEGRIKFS
Test: cell-based or functional assay
READOUT_LABEL: IC50, inhibition of AMP hydrolysis by recombinant human CD73 enzyme (CellTiter-Glo) (ng/mL)

chimeric nanobody 4-B02 (Fc fusion, Human-alpaca chimeric antibody) VHH: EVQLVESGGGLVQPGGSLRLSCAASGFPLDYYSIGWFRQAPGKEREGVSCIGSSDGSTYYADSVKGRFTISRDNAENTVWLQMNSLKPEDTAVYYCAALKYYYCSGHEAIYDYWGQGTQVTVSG | 4.66
chimeric nanobody 3-D7 (Fc fusion, Human-alpaca chimeric antibody (VHH on hIgG1 Fc); Only the VHH is tied to the tested molecule; 37-39 exist for 3-D7-FC1/FC2/FC3; also called original antibody 3-D7) VHH: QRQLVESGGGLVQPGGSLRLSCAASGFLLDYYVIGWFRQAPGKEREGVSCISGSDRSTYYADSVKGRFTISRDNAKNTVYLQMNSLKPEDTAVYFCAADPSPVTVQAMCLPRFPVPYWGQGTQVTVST | 38.2
chimeric nanobody 4-D04 (Fc fusion, Human-alpaca chimeric antibody) VHH: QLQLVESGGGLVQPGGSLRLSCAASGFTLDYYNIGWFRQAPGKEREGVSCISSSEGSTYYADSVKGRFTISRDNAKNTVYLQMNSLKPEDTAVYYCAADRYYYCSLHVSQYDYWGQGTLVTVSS | 5.63
chimeric nanobody 5-E11 (Fc fusion, Human-alpaca chimeric antibody (VHH on hIgG1 Fc); Only the VHH is tied to the tested molecule; also called original antibody 5-E11) VHH: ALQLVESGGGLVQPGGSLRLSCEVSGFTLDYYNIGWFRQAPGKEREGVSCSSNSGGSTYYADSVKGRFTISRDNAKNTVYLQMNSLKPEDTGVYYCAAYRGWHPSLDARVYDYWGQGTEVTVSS | 9.47
